Recorded values, source ChEMBL document CHEMBL5058564.

Give measured Growth Rate for each item. Keep answers brief.
- System: Fibroblast
- assay details: Incucyte cell viability with human fibroblast; also: unitless GR value; below 1 slowed growth and below 0 cell loss
- Assay type: toxicity, cell-based
- measurement context: 6 h, 10 µM, compound concentration 10 uM, replicate number 1, timepoint 6 hours
Give the figure by itself; no unit, no explanation.

Entry CC(C)n1cc(-c2ccc(N3CCN(C)CC3)c(NC(=O)c3ccc(-c4ccncc4)o3)c2)cn1 , Fibroblast data, Growth Rate value: -0.14

Hey, Fibroblast data for CCCCCCCCCCCCC/C=C/[C@@H](O)[C@@H](N)COP(=O)(O)O : Growth Rate came out at -0.68

For the molecule CCCCOCCOc1nc(-c2ccc(C(=O)O)c(F)c2)sc1C , the measured Growth Rate on Fibroblast was 0.05

Short answer on Fibroblast for CNC(=O)c1nn(C)c2c1C(C)(C)Cc1cnc(Nc3ccc(N4CCN(C)CC4)cc3)nc1-2 [MILCICLIB] , Growth Rate: -0.13

Query Cc1ccc(F)cc1C(=O)Nc1ccc(C(=O)N2Cc3cccn3Cc3ccccc32)c(Cl)c1 [LIXIVAPTAN] on Fibroblast; Growth Rate returned: 0.63

The value of Growth Rate recorded for COc1c(C)cc(NC(=O)c2nn(Cc3ccc(F)cc3)c3c2CN(C(=O)c2ccc[nH]2)C[C@]3(C)C(N)=O)cc1C when tested on Fibroblast reads -0.71

// molecule Cc1c(C(=O)NN2CCCCC2)nn(-c2ccc(Cl)cc2Cl)c1-c1ccc(Cl)cc1 [RIMONABANT] , assay Fibroblast, Growth Rate value: -0.42

Measured Growth Rate for this entry CC(C)CCC[C@@H](C)[C@H]1CC[C@H]2[C@@H]3[C@H](O)C=C4C[C@@H](O)CC[C@]4(C)[C@H]3CC[C@]12C on Fibroblast: 0.24
